test system: hT40, dGA, dGAE and truncated tau fragments; assay: Binding ELISA / epitope mapping of anti-tau scAbs with truncated tau proteins and 13mer peptides; design: species or system human; details: Table 16; NS, S and M clones; incl. 13mer peptides
Parameter measured: Shortest region bound on hT40

{"Molecule": "S1D12: sheep-derived anti-tau core clone; scFv SEQ ID NO: 32, VH 443, VL 444 (protein, S1D12 amino acid sequence) scFv: QVQLQESGPSLVKPSQTLSLTCTVSGFSLNNNAVGWVRQAPGKVPESLVGCSSDGTCYYNSALKSRLDITRDTSKNQISLSLSSVTTDDAAVYYCTRGHYSIYGYDYLGTIDYWGPGLLVTVSSEGKSSGASGESKVDDQAVLTQPSSVSGSLGQRVSITCSGSSSNVGGGNSVGWYQHLPGSGLKTIIYDTNSRPSGVPDRFSGSRSGNTATLTINSLQAEDEGDYYCVTGDSTTHDDLVGSGTRLTVLG", "Test value": "337-355"}
{"Molecule": "S1G2: sheep-derived anti-tau core clone; scFv SEQ ID NO: 81, VH 455, VL 456 (protein, S1G2 amino acid sequence) scFv: QVQLQESGPSLVKPSQTLSLTCTVSGFSLTSNSVGWVRQAPGKAPEWVAGIDTDGEEGYNPALNSRLSITRDTSKSQVSLSLSSVTSEDTAVYYCGRSYRADGLAYGYVQAIDYWGPGLLVTVSSEGKSSGASGESKVDDQAVVTQPSSVSGSLGQRVSITCSGSFIGISSVGWFQQLPGSGLRTIIVASDGRPSGVPDRFSMSKSGNTATLTISSLQAEDEADYFCGSSDRTPYTGVFGSGTRLTVLG", "Test value": "367-379"}
{"Molecule": "S1D9: anti-tau clone, Table 2; SEQ ID NO: 413 (protein, S1D9 amino acid sequence) scFv: QVQLQESGPSLVKPSQTLSLTCTVSGFSLTSNSVGWVRQAPGKAPEWVAGIDSDGEEGYNPALNSRLSITRDTSKNQVSLSLSRVTSEDTAVYYCGRTYRTDGYAYGYVQAIDYWGPGLLVTVSSEGKSSGASGESKVDDRVMLTQPPSVSGSPGQTVSITCSGSFIGISSVGWFQQLPGSGLRTVIFASDGRPSGVPDRFSNSKSGNTATLTISSLQAEDEADYFCGSSDRTQYTGVFGSGTRLTVLS", "Test value": "367-379"}
{"Molecule": "S1G10: anti-tau clone, Table 2; SEQ ID NO: 415 (protein, S1G10 amino acid sequence) scFv: QVQLQESGPSLVKPSQTLSLTCTVSGFSLTSNSVGWVRQAPGKAPEWVAGIDTDGEEGYNPALNSRLSITRDTSKSQVSLSLSSVTSEDTAVYYCGRSYRADGLAYGYVQAIDYWGPGLLVTVSSEGKSSGASGESKVDDQAVLTQPSSMSGSLGQRVSITCSGSFIGISSVGWFQQLPGSGLRTIIVASDGRPSGVPDRFSMSKSGNTATLTISSLQAEDEADYFCGSSDRTQYTGVFGSGTRLTVLG", "Test value": "367-379"}

Where do these numbers come from? They come from patent US20250355001A1.
